These data points were gathered from ChEMBL document CHEMBL3425447.

Experiment: Metabolic stability in mouse liver microsomes assessed as compound remaining at 1 uM after 30 mins byLC-ESI/MS/MS analysis in presence of NADPH
Format: ADME
Conditions: read-out: Stability
value kind: remaining at 0.5 h, 1 µM (%)
Write the number in % without appending the unit.

For this molecule ( CC(C)(C)c1ccc(CCn2cccc(/C=C/C(=O)NO)c2=O)cc1 ), measured remaining at 0.5 h, 1 µM is 28.3

For this molecule ( COc1cccc(Cn2cccc(/C=C/C(=O)NO)c2=O)c1 ), measured remaining at 0.5 h, 1 µM is 61.5

For this molecule ( CCc1ccc(CCn2cccc(/C=C/C(=O)NO)c2=O)cc1 ), measured remaining at 0.5 h, 1 µM is 11.1

For this molecule ( O=C(/C=C/c1cccn(CCCc2cccc(Br)c2)c1=O)NO ), measured remaining at 0.5 h, 1 µM is 20.7

***
For this molecule ( O=C(/C=C/c1cccn(Cc2ccc3ccccc3n2)c1=O)NO ), measured remaining at 0.5 h, 1 µM is 90.3

For this molecule ( COc1cccc(CCCn2cccc(/C=C/C(=O)NO)c2=O)c1 ), measured remaining at 0.5 h, 1 µM is 88.4

For this molecule ( O=C1CC2(CCCC2)CC(=O)N1CCCCN1CCN(c2ncccn2)CC1 ), measured remaining at 0.5 h, 1 µM is 0.4

For this molecule ( CCOc1ccccc1CCCn1cccc(/C=C/C(=O)NO)c1=O ), measured remaining at 0.5 h, 1 µM is 31.5

For this molecule ( O=C(/C=C/c1cccn(CCCc2ccccc2Br)c1=O)NO ), measured remaining at 0.5 h, 1 µM is 24.2

For this molecule ( CCOc1ccc(CCn2cccc(/C=C/C(=O)NO)c2=O)cc1 ), measured remaining at 0.5 h, 1 µM is 59.6
